All figures here come from paper PMC11237553.

- Tested on: Escherichia coli ATCC 25922
- experimental protocol: Broth microdilution antimicrobial susceptibility testing (MIC/MBC)
- Type: cell-based
- measurement context: concentration killing 99.9% of the inoculum, plated from MIC wells, 24 h at 37°C; range in three independent experiments in duplicate, one maximum and one minimum data point dropped
quantity name: MBC, E. coli ATCC 25922

// below: answered sequences
Q: Recorded MBC, E. coli ATCC 25922 for MLPSIAGAAAKGLPKLFCKITKKC [DeNo1038] , please?
Result: 64 to 128 µg/mL

Q: Consider next the sequence TLPDVAKNVAKNVAKTVLDTLKCKITGKC [DeNo1020] in the same way.
Result: 64 to 128 µg/mL

Q: Repeat for the following sequence: RLPSIIPGIAGKLGGLLGGLLKGL [DeNo1027]
Result: 32 to 64 µg/mL

Q: Now the same for FLPKIFKKIAKKL [DeNo1045]
Result: 64 to 128 µg/mL

Q: Now the same for KIFGKILKKLLKKLLKKLLKKL [DeNo1013]
Result: 16 to 32 µg/mL

Q: And the next one, KLPSIIKAAAKALPKLF [DeNo1034] ?
Result: 16 to 64 µg/mL

// next item, MBC, E. coli ATCC 25922 requested
Q: Query: MBC, E. coli ATCC 25922; subject: FLPKIAGKAAKKLPKIFCKITKKC [DeNo1019]
Result: 16 µg/mL
